B1: KRT34 (parent)
chain: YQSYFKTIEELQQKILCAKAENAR

Variants of: B1
Test: protein stability index of a GFP-peptide fusion (GPS, HEK-293T) (PSI 1-6); higher = more stable;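 further: lentivirally expressed fusions sorted by FACS into six bins by GFP to DsRed ratio, PSI derived from sequencing read proportions per bin multiplied by bin number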
Details: c terminus: a fixed tail appended
Each record here notes measured protein stability index.
Lab note: record the figure alone, no unit after it.

Below, each entry is followed by its recorded protein stability index result.
> print(dat)
                    input.sequence  experimental.value
1   YQSYIKTIEELQQKILCAKAENAR [F5I]                1.94
2  YQSYFKTIEELQCKILCAKAENAR [Q13C]                1.82
3   YQSEFKTIEELQQKILCAKAENAR [Y4E]                1.63
4   YQSYFKTIQELQQKILCAKAENAR [E9Q]                 1.9
5  YQSYFKTIEELQQEILCAKAENAR [K14E]                2.61

stdin: If you can, please state the reported protein stability index value of YFSYFKTIEELQQKILCAKAENAR [Q2F] .
stdout: 2.53

stdin: Continue with KQSYFKTIEELQQKILCAKAENAR [Y1K]
stdout: 2.88

stdin: Continue with DQSYFKTIEELQQKILCAKAENAR [Y1D]
stdout: 4.17

stdin: Continue with YQSYFKTIEELQQKPLCAKAENAR [I15P]
stdout: 1.71

Hello, the source for this data is the supplement of paper PMC10567573, in case you need it.
